Lab note: pIC50 readings collected with human ADAM17 (TACE) (Homo sapiens) for the following compounds.
Sequence (P78536 215-824): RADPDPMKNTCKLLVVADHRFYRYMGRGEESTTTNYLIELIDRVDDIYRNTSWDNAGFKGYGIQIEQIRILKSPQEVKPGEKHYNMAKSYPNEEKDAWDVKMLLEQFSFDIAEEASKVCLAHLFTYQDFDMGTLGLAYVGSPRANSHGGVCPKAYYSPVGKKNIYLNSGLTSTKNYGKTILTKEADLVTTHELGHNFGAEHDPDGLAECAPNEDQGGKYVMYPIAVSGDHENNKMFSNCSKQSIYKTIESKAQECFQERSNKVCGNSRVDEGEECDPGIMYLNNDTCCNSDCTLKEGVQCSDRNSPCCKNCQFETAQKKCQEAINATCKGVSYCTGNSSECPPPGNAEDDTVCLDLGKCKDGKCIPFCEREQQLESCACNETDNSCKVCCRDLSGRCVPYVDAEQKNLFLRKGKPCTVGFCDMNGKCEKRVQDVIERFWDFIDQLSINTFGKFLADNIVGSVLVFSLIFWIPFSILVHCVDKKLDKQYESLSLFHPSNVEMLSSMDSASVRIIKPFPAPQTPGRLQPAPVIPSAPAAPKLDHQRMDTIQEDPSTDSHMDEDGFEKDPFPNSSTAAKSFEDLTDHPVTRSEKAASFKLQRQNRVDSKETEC
pIC50: −log10 of the molar value.
measured_parameter: pIC50

CC(C)(C)CC(CS(=O)(=O)N1CCc2ccc(Cl)cc2C1)N(O)C=O (stereo not shown) :: 6.72
O=CN(O)C(CS(=O)(=O)N1CCc2ccc(-c3ccsc3)cc2C1)C1CCCC1 (stereo not shown) :: 6.57
CC1(C)OC[C@H](C(CS(=O)(=O)N2CCc3ccc(C(F)(F)F)cc3C2)N(O)C=O)O1 (stereo partly shown) :: 5.89

I = CC(C)C(CS(=O)(=O)N1CCc2ccc(-c3ccc(F)cc3)cc2C1)N(O)C=O (stereo not shown)
II = O=CN(O)[C@H](CS(=O)(=O)N1CCc2ccc(Cl)cc2C1)[C@H]1CCCO1
III = CC(C)(C)CC(CS(=O)(=O)N1Cc2ccc(F)cc2C1)N(O)C=O (stereo not shown)
IV = COc1ccc(C(CS(=O)(=O)N2CCc3ccccc3C2)N(O)C=O)cn1 (stereo not shown)
[Q] Rank the 4 compounds: largest pIC50 first, smallest last. Dear reader, please state the labels in the requested order.
[A] II, IV, I, III
(II: 7.89, IV: 7.40, I: 6.40, III: 5.96)

---

- experimental_target: UniProt:P08253
- Sequence (P08253 110-660): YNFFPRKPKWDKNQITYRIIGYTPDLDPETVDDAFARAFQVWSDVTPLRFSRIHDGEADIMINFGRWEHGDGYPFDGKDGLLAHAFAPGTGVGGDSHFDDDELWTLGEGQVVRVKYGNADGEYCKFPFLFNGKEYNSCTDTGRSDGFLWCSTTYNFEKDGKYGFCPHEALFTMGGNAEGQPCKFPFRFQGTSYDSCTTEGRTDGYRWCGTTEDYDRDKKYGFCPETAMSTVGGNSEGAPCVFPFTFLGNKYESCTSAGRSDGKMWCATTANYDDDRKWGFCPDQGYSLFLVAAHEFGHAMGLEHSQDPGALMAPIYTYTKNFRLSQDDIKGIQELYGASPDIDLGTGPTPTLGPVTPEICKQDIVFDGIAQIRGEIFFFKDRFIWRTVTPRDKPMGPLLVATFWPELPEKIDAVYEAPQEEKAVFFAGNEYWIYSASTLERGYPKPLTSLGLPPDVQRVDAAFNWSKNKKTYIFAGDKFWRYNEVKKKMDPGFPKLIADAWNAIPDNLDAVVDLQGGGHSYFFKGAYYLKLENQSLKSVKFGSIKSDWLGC
# maps each entry to its IC50

Examples with answers:
COc1cc2c(cc1OC)CN(S(=O)(=O)CC(C1CCCC1)N(O)C=O)CC2 (stereo not drawn) :: > 5 µM
CC(C)Oc1ccc2c(c1)CN(S(=O)(=O)CC(C1CCCC1)N(O)C=O)CC2 (stereo not drawn) :: > 5 µM

[Q] Report IC50, nothing else, for this compound: COc1cc2c(cc1OC)CN(S(=O)(=O)CC([C@H]1COC(C)(C)O1)N(O)C=O)CC2 (stereo partly drawn)
[A] > 5 µM

---

- experimental_target: UniProt P03956
- Sequence (P03956 100-469): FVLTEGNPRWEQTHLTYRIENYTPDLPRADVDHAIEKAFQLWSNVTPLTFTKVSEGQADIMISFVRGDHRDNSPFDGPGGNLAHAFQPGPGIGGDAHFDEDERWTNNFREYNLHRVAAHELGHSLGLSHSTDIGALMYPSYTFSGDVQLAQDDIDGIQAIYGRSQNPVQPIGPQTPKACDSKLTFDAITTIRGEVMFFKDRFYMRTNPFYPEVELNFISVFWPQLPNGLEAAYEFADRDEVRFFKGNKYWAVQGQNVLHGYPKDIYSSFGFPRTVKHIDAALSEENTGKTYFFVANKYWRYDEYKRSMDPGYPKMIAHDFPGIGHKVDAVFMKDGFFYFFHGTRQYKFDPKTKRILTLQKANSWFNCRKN
- method: MMP-1 enzyme inhibition assay (coumarin-labelled peptide substrate)
- Assay type: biochemical
- study_conditions: @ 5 μM; read-out: percentage inhibition MMP1
measured_parameter: inhibition at 5 µM (%)

CC(C)(C)c1ccc2c(c1)CN(S(=O)(=O)CC(COCc1ccccc1)N(O)C=O)CC2 (stereo not drawn) :: 0
CC(C)C(CS(=O)(=O)N1CCc2ccc(-c3ccc(F)cc3)cc2C1)N(O)C=O (stereo not drawn) :: 0
O=CN(O)C(CS(=O)(=O)N1CCc2ccc(-c3cccc(O)c3)cc2C1)C1CCCC1 (stereo not drawn) :: 0

---

- experimental_target: UniProtKB P14780
- Sequence (P14780 107-707 limits assumed): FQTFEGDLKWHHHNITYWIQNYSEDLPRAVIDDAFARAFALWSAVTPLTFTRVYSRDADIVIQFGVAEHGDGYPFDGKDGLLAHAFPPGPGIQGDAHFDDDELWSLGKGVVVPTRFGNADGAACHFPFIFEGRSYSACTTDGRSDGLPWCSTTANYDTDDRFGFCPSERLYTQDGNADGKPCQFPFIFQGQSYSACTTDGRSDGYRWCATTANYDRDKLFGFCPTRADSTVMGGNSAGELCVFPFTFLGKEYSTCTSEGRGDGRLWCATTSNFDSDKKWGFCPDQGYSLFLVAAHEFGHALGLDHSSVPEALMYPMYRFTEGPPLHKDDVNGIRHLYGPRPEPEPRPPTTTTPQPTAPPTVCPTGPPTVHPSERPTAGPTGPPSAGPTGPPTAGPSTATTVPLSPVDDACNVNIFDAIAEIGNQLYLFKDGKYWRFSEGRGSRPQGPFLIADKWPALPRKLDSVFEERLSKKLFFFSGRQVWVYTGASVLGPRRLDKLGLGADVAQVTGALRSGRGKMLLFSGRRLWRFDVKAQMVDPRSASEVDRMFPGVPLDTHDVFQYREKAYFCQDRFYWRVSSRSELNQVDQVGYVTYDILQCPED
- method: MMP-9 enzyme inhibition assay (coumarin-labeled peptide substrate)
- Format: biochemical
- study_conditions: @ 5 μM; read-out: percentage inhibition MMP9
- Protocol: Compounds of the invention were tested to assess their activities as inhibitors of MMP-1, MMP-2, MMP-9, MMP-14, MMP-12 and TACE. MMP-9 Assay Protocol […] The assay was performed in a total volume of 100 μL per well in 96-well microtitre plates. […] The fluorescence at 405 nm was measured immediately with an SLT Fluostar fluorometer (SL T Labinstruments GmbH, Grödig, Austria) using 320 nm excitation, without stopping the reaction. […]
measured_parameter: inhibition at 5 µM (%)

CC(C)(C)c1ccc2c(c1)CN(S(=O)(=O)CC(COCc1ccccc1)N(O)C=O)CC2 (stereo not drawn) [Example 57] :: 0

a = CC(C)(C)CC(CS(=O)(=O)N1CCc2ccc(Cl)cc2C1)N(O)C=O (stereo not drawn) [Example 41]
b = O=CN(O)C(CS(=O)(=O)N1CCc2ccc(C(F)(F)F)cc2C1)C1CCCC1 (stereo not drawn) [Example 82]
[Q] Would you mind telling me which has the lower recorded inhibition at 5 µM between a and b ? Kindly state the label of the option you pick.
[A] b
(b: 0%, a: 14%)

meta.source: patent US7879876B2
